The measured values listed here are drawn from paper PMC5540273.

- System: CLK1;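 further: KINOMEscan kinase panel screen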
- CONDITION_LABEL: concentration: 1 μM, replicates: in singlicate; n = 1
Below is a list of entries, each paired with its recorded %Inh value.
PARAMETER: %Inh (%)

{"STRUCTURE_NOTATION": "Cc1ccc(C(=O)Nc2ccc(Nc3ccnc4cc(-c5nccs5)ccc34)cc2O)cc1.Cl", "DATA_VALUE": 1}
{"STRUCTURE_NOTATION": "COc1cc2c(cc1OCCN1CCNCC1)ncc1c3ccc(C#N)cc3[nH]c21", "DATA_VALUE": 95.7}
{"STRUCTURE_NOTATION": "Cn1cc(-c2ccc3c(c2)CCN3C(=O)Cc2cccc(F)c2)c2c(N)ncnc21", "DATA_VALUE": 18}
{"STRUCTURE_NOTATION": "Clc1ccc(-c2nn3ncccc3c2-c2ccnc(Nc3ccc4c(c3)OCCO4)n2)cc1", "DATA_VALUE": 0}
